The measured values listed here are drawn from patent US11643417B2.

Biological target: human Pim-1 (Homo sapiens (Human), UniProt P11309)
Sequence (P11309 whole entry): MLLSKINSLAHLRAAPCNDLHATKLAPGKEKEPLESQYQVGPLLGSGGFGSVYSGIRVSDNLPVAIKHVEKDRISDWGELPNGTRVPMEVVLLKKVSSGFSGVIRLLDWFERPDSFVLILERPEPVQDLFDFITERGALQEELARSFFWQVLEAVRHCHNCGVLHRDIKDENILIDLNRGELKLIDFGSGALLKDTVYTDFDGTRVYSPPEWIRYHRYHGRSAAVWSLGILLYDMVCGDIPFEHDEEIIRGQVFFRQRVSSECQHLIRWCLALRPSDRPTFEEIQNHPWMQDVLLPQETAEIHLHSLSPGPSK
Experiment: biochemical
Format: biochemical
Details: Ki converted from IC50; purified human Pim-1, Pim2tide substrate, ADP-Glo; read-out: hPim1 Ki
Reported Ki values are given for each entry in this list.
Dear colleague, please return just the value in nM, with no unit written.

Examples with their reported Ki follow.
{"COMPOUND": "O=C1NCCN(CCC2COCC(CF)O2)c2c1oc1ccc(C(F)(F)F)cc21 (racemic) [Example 134]", "SYSTEM": "human Pim-1 (Homo sapiens (Human), UniProt P11309)", "RESULT_NUMBER": 0.753}
{"COMPOUND": "O=C1NCCN(CC(F)(F)C2CCC(O)CC2)c2c1oc1ccc(C(F)(F)F)cc21 (stereo not shown)", "SYSTEM": "human Pim-1 (Homo sapiens (Human), UniProt P11309)", "RESULT_NUMBER": 0.0862}
{"COMPOUND": "CC1COCC(CCN2CCNC(=O)c3oc4ccc(C(F)(F)F)cc4c32)O1 (racemic) [Example 115]", "SYSTEM": "human Pim-1 (Homo sapiens (Human), UniProt P11309)", "RESULT_NUMBER": 0.672}
{"COMPOUND": "O=C1NCCN(CC[C@H]2CO[C@@H](CO)CO2)c2c1oc1ccc(C(F)(F)F)cc21", "SYSTEM": "human Pim-1 (Homo sapiens (Human), UniProt P11309)", "RESULT_NUMBER": 0.567}

Field Ki (human Pim-1 (Homo sapiens (Human), UniProt P11309)), entry `C[C@H]1CN(CC[C@H]2CC[C@](O)(CO)CC2)c2c(oc3ccc(C(F)(F)F)cc23)C(=O)N1` : 0.074

Field Ki (human Pim-1 (Homo sapiens (Human), UniProt P11309)), entry `CS(=O)(=O)C[C@H]1CO[C@H](CCN2CC3(CC3)NC(=O)c3oc4ccc(C(F)(F)F)cc4c32)CO1` : 0.188
